Items are presented alongside their recorded normalized growth.
Assay: chemical genetic growth profiling, strain panel (AID 1159580);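 also: tested at 20 µM; growth read once vehicle control cultures reached saturation at 30 °C; 1 = growth at the plate median or of vehicle wells; lower values mean less growth of the strain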
Conditions: S. cerevisiae deletion strains, growth OD, locus YLR384C, strain iki3, hits give low values
The campaign covered roughly 5,500 compounds. About 2,000 (36%) were called active. Another 18% or so got no clear call; they are omitted. This is one part of the list.
property name: normalized growth

In [3]: df
Out[3]:
                                    compound  recorded_value
 0  CC(C)CCCC(C)[C@H]1CCC2C3CC[C@H]4CC(=O)CC[C@]4(C)C3CC[C@@]21C (some centres not stated)           0.996
 1  O=C(CCCN1CC=C(n2c(=O)[nH]c3ccccc32)CC1)c1ccc(F)cc1           0.961
 2    CC(=O)c1ccc2c(c1)N(CCCN(C)C)c1ccccc1S2           0.987
 3            C=C(C)c1cc2cc(C(C)=O)c(O)cc2o1           0.977
 4  CSCCC(NC=O)C(=O)NC(CC(C)C)C(=O)NC(Cc1ccccc1)C(=O)O (configuration not stated)               1
 5  CC(=O)OCC(=O)[C@@]1(O)CCC2C3CCC4=CC(=O)CC[C@]4(C)[C@@]3(F)[C@@H](O)C[C@@]21C (some centres not stated)            1.02
 6    CN1CCN(CCCN2c3ccccc3Sc3ccc(Cl)cc32)CC1           0.987
 7  CCOC(=O)C1=C(C)NC(C)=C(C(=O)OC)C1c1cccc([N+](=O)[O-])c1 (configuration not stated)           0.998
 8  OCCN1CCN(CCCN2c3ccccc3Sc3ccc(Cl)cc32)CC1               1
 9  O=c1[nH]c2ccccc2n1CCCN1CCC(n2c(=O)[nH]c3cc(Cl)ccc32)CC1           0.978
10                 Cc1ncc([N+](=O)[O-])n1CCO           0.982
11  C[C@]12CCC3C(CC[C@H]4CC(=O)CC[C@]34C)C1CCC2=O (some centres not stated)            1.04
12              Cn1c(=O)[nH]c(=O)c2[nH]cnc21           0.983
13            Cn1c([N+](=O)[O-])cnc1COC(N)=O               1
14  CCOc1ccc(Cc2nccc3cc(OCC)c(OCC)cc23)cc1OCC           0.989
15               CN(C)c1nc(N(C)C)nc(N(C)C)n1           0.951
16  O=c1n(CCCN2CCN(c3cccc(Cl)c3)CC2)nc2ccccn12           0.983
17              CC(=O)N[C@@H](CC(=O)O)C(=O)O           0.982
18  OC[C@@H](O)C(O[C@@H]1O[C@H](CO)[C@H](O)[C@H](O)[C@H]1O)[C@H](O)[C@@H](O)CO (some centres not stated)           0.983
19                       FC(F)(F)COCC(F)(F)F            1.02
20  O=c1[nH]c2ccccc2n1C1CCN(CCCC(c2ccc(F)cc2)c2ccc(F)cc2)CC1            1.04
21  CC1(C)C[C@@H]2C(=O)CC[C@H]3O[C@]3(C)CC[C@H]21            1.03

These entries and their values trace back to PubChem BioAssay AID1159580.
